ASSAY SYSTEM: EphrinB2-EphB2 (Homo sapiens)
Construct: soluble human EphB1-His, EphB2-His, and EphB4-His ectodomains; commercially available human EphrinB1-Fc (EB1), EphrinB2-Fc (EB2), and EphrinB3-Fc (EB3) ectodomain proteins; purchased
Sequence (P29323 19-543 limits assumed): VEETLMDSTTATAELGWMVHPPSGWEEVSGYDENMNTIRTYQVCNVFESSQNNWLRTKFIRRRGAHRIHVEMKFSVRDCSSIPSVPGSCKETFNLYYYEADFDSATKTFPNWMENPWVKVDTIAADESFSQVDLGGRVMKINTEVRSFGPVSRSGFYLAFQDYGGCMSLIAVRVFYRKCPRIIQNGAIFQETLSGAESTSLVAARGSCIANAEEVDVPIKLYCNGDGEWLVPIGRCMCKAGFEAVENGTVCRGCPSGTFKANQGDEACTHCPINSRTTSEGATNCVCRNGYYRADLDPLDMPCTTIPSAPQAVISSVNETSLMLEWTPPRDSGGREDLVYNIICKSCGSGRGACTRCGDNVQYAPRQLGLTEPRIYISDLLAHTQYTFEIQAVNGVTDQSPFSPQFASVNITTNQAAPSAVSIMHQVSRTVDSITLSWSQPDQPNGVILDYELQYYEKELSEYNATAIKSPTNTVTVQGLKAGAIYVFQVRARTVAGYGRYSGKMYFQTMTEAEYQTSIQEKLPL
ASSAY: Octet 80 sec association/500 sec dissociation, immobilized human EphrinB2-Fc binding to soluble human EphB2-His
MEASUREMENT SETUP: at 3.2 μM and 80 seconds; immobilized human EphrinB2; 25 nM soluble human EphB2
Response field class: string, computed from recorded EphB2 Inhibition Percent, Inhibition of Association ONLY by ranges lo = under 40%, med = from 40% up to 60%, hi = 60% and over

Worked cases, answers included:
Oc1ccc(CN2CCN(c3ccc(Br)cc3)CC2)c2cccnc12 :: lo
Oc1ccc(CN2CCN(c3ccc(Br)cn3)CC2)c2cccnc12 :: hi
Oc1ccc(CN2CCN(c3ccc(C(F)(F)F)cc3)CC2)c2cccnc12 :: lo

For the record COCc1cc(CN2CCN(C)CC2)c(O)c2ncccc12 [Compound 77, reference compound] , report the class its EphB2 Inhibition Percent, Inhibition of Association ONLY corresponds to. lo

// return the class label for Oc1ccc(CN2CCCCC2)c2cccnc12 [Compound 68, 5-(piperidin-1-ylmethyl)quinolin-8-ol, reference compound] med

Exam item: assign "Cc1ccc2c(CN3CCOCC3)cc(Br)c(O)c2n1" to the correct category. lo

Band for "Oc1c(I)cc(CN2CCN(Cc3ccc(Br)cc3)CC2)c2cccnc12" ? med

Kindly identify the class of "O=[N+]([O-])c1ccc(N2CCN(Cc3ccc(O)c4ncccc34)CC2)cc1" . med

State the band of "COc1ccc(N2CCN(Cc3cc(I)c(O)c4ncccc34)CC2)cc1" med

Quick check: band for "O=S1(=O)CCN(Cc2ccc(O)c3ncccc23)CC1" lo

Category of "Oc1ccc(CN2CCN(c3ccc(I)cc3)CC2)c2cccnc12" , please. hi

Kindly state the category for this compound: "Oc1ccc(CN2CCN(C3CCCC3)CC2)c2cccnc12" lo

Input "O=S1(=O)CCN(Cc2cc(I)c(O)c3ncccc23)CC1" ; output its category med

Which of the defined bands does the recorded EphB2 Inhibition Percent, Inhibition of Association ONLY of "OCc1ccc2c(CN3CCOCC3)ccc(O)c2n1" sit within? med

====

ASSAY SYSTEM: EphB1-EphrinB2 (Rattus norvegicus, UniProt P09759)
Construct: rat EphB1-Fc residues 18-538; mouse EB2-His residues 18-232; purchased R&D Systems (EphB1-Fc); Sino Biologicals (EB2-His)
Sequence (P09759 18-538): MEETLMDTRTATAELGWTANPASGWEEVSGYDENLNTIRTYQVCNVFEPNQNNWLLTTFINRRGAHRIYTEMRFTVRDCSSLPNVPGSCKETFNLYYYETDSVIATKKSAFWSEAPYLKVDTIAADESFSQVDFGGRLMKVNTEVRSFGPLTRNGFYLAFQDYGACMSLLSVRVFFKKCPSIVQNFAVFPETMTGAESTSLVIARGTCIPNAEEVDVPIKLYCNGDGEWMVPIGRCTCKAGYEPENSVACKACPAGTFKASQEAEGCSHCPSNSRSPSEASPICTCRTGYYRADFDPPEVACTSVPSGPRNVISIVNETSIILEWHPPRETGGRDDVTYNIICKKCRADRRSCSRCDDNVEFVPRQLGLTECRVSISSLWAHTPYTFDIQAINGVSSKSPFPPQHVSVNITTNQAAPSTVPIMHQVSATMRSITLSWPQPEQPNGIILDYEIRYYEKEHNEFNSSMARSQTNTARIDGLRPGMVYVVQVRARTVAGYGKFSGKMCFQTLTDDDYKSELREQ
ASSAY: Octet RED384, immobilized rat EphB1-Fc binding to 30 nM mouse EB2-His (400 sec / 500 sec)
Design: species or system mouse EphrinB2
MEASUREMENT SETUP: rEphB1-mEphrinB2; immobilized rat EphB1; 50 nM soluble mouse EphrinB2; association; relative; read-out: Relative Association IC50
EXPERIMENTAL READOUT: pIC50
In plain terms, pIC50 is the concentration in mol/L turned into minus its base-10 logarithm.

Oc1c(Br)cc(CN2CCOCC2)c2cccnc12 :: 6.13
O=S1(=O)CCN(Cc2ccc(O)c3ncccc23)CC1 :: 4.00
O=[N+]([O-])c1cc(CN2CCOCC2)c2cccnc2c1O :: 5.27
Oc1ccc(CN2CCOCC2)c2cccnc12 :: 4.00

Pending compound:
Just so you know, measured pIC50 for "Oc1c(Cl)cc(CN2CCOCC2)c2cccnc12" came out at 6.03

====

ASSAY SYSTEM: EphA3-EphrinA1 (Homo sapiens)
Sequence (P29320 21-541 limits assumed): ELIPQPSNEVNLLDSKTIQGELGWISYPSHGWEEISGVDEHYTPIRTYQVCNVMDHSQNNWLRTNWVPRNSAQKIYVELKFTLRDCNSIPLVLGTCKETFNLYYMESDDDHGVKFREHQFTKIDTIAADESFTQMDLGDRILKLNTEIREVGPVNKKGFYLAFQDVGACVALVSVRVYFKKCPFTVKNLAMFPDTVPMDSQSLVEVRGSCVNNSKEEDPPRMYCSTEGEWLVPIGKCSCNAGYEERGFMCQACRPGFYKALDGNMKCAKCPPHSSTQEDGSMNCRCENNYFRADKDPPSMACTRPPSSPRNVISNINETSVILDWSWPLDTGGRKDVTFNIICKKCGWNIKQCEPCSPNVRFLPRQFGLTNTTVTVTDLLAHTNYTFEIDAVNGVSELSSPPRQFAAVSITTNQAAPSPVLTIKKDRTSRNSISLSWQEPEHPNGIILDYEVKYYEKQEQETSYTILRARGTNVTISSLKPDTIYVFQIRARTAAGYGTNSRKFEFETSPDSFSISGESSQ
ASSAY: Octet, immobilized human EphA3 binding to human EphrinA1
MEASUREMENT SETUP: Human EphA3-EphrinA1; immobilized human EphA3; 50 nM soluble human EphrinA1; association; relative; read-out: Relative Association IC50
IC50 overview
Reply numerically in µM, unit not repeated.

Oc1ccc(CN2CCOCC2)c2cccnc12 [Compound 1, 5-(morpholinomethyl)quinolin-8-ol] :: 6.29

# value of IC50, EphA3-EphrinA1 (Homo sapiens), item O=[N+]([O-])c1cc(CN2CCOCC2)c2cccnc2c1O [Compound 10] = 8.3

With EphA3-EphrinA1 (Homo sapiens) as the test system, Oc1ccc(CN2CCN(Cc3ccc(C(F)(F)F)cc3)CC2)c2cccnc12 [Compound 48] showed IC50 of 100

====

Listing of recorded pIC50 by entry.
ASSAY SYSTEM: EphrinB2-EphB2 (Homo sapiens, UniProt P29323)
Construct: soluble human EphB1-His, EphB2-His, and EphB4-His ectodomains; commercially available human EphrinB1-Fc (EB1), EphrinB2-Fc (EB2), and EphrinB3-Fc (EB3) ectodomain proteins; purchased
ASSAY: Octet tetramerization inhibition, immobilized human EphrinB2 binding to 50 nM soluble human EphB2
MEASUREMENT SETUP: Absolute AUC/IC50, Table A, EphrinB2-EphB2
pIC50: −log10 of the molar value.

# example entries with known answers
Oc1ccc(CN2CCN(Cc3ccc(Br)cc3)CC2)c2cccnc12 [Compound 42] :: 5.60
Cc1ccc2c(CN3CCN(c4ccc(Br)cc4)CC3)ccc(O)c2n1 [Compound 60] :: < 5.49
Oc1ccc(CN2CCN(c3ccccc3)CC2)c2cccnc12 [Compound 22] :: < 5.49
Cc1ccc2c(CN3CCOCC3)cc(Br)c(O)c2n1 [Compound 57] :: < 5.49
Nc1ccc(N2CCN(Cc3ccc(O)c4ncccc34)CC2)cc1 [Compound 39] :: 5.51
COc1ccc2[nH]cc(C(=O)N3CCN(c4ccc(Br)cc4)CC3)c2c1 [Compound 65] :: < 5.80

Measured pIC50 of O=C(Cc1ccccc1)Nc1ccc(N2CCN(Cc3ccc(O)c4ncccc34)CC2)cc1 [Compound 51] : 5.82

Looking up Oc1ccc(CN2CCN(c3ccc(F)cc3F)CC2)c2cccnc12 [Compound 62] , I found its pIC50 recorded as < 5.80

Kindly note the recorded pIC50 for Oc1c(Br)cc(CN2CCN(Cc3ccc(Br)cc3)CC2)c2cccnc12 [Compound 44] , which is < 5.49

Briefly, pIC50 measured for O=[N+]([O-])c1cc(CN2CCOCC2)c2cccnc2c1O [Compound 9] : < 5.49

====

Below, each entry is listed alongside its reported IC50.
ASSAY SYSTEM: EphrinB2-EphB4 (Homo sapiens, UniProt P54760)
Construct: soluble human EphB1-His, EphB2-His, and EphB4-His ectodomains; commercially available human EphrinB1-Fc (EB1), EphrinB2-Fc (EB2), and EphrinB3-Fc (EB3) ectodomain proteins; purchased
Sequence (P54760 16-539 limits assumed): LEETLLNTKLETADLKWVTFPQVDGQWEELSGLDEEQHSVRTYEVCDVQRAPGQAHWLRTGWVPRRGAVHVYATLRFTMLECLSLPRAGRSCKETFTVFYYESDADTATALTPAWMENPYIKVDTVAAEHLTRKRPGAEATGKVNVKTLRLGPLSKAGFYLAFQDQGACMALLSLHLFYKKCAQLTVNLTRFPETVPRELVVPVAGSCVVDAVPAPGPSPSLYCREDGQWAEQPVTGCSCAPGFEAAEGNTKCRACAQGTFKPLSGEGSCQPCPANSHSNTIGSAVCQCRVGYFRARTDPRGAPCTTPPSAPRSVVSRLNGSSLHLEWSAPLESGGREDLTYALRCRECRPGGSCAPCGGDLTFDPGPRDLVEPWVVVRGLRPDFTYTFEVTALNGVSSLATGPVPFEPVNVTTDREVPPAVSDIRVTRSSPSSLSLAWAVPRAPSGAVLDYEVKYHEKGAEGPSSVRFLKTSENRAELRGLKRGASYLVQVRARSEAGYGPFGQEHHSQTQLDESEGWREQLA
ASSAY: Octet 80 sec association/500 sec dissociation, immobilized human EphrinB2-Fc binding to soluble human EphB4-His
MEASUREMENT SETUP: EphB4; Dissociation (135″); read-out: Absolute IC50

Oc1c(Br)cc(CN2CCN(c3ccc(Br)cc3)CC2)c2cccnc12 :: 780 nM

Let us move to another entry and its IC50.
Notebook: "Oc1c(I)cc(CN2CCOCC2)c2cccnc12" , IC50 read as 3020 nM
